# reported EC50; entries follow
# MEASUREMENT_TARGET: cat T1R1/T1R3 receptor (Felis catus, UniProt E3UMS2)
# ASSAY_COMMENT: cell-based
# Assay type: cell-based
# EXPERIMENTAL_CONTEXT: read-out: EC50- with Ala
Where a name gives a salt, the structure may show the parent alone.
Report the value in µM with no unit label.

{"COMPOUND": "Nc1ncnc2c1ncn2[C@H]1C[C@H](O)[C@@H](COP(=O)(O)O)O1 [2′-Deoxyadenosine 5′-monophosphate]", "EXPERIMENTAL_ENDPOINT": "EC50", "OBSERVED": 140}
{"COMPOUND": "Nc1ncnc2c1ncn2C1OC(COP(=O)(O)O)C(OP(=O)(O)O)C1O (stereo not shown) [Adenosine 3′,5′-diphosphate sodium salt, adenosine 3′, 5′ diphosphate sodium salt]", "EXPERIMENTAL_ENDPOINT": "EC50", "OBSERVED": 1}
{"COMPOUND": "O=c1[nH]cnc2c1ncn2C1CC(O)C(COP(O)(O)=S)O1 (stereo not shown)", "EXPERIMENTAL_ENDPOINT": "EC50", "OBSERVED": 100}
{"COMPOUND": "Nc1nc2c(ncn2[C@@H]2O[C@H](COP(=O)(O)OP(=O)(O)O)[C@@H](O)[C@H]2O)c(=O)[nH]1 [Guanosine 5′-diphosphate sodium salt, Guanosine 5′-diphosphate]", "EXPERIMENTAL_ENDPOINT": "EC50", "OBSERVED": 200}
{"COMPOUND": "Nc1ncnc2c1ncn2[C@H]1C[C@H](O)[C@@H](COP(O)(O)=S)O1", "EXPERIMENTAL_ENDPOINT": "EC50", "OBSERVED": 60}

(Q) Given O=c1[nH]cnc2c1ncn2[C@@H]1O[C@H](COP(=O)(O)OP(=O)(O)O)[C@@H](O)[C@H]1O [Inosine 5′-diphosphate (IDP) sodium salt, inosine 5′-diphosphate (IDP) sodium salt] , state its recorded EC50.
(A) 650

(Q) Report EC50 for O=P(O)(O)OP(=O)(O)OP(=O)(O)OC[C@H]1O[C@@H](n2cnc3c(O)ncnc32)[C@H](O)[C@@H]1O [inosine triphosphate (ITP), inosine triphosphate, reference compound] please.
(A) 80

(Q) Recorded EC50 of Nc1nc2c(ncn2[C@H]2C[C@H](O)[C@@H](COP(O)(O)=S)O2)c(=O)[nH]1 , please.
(A) 20

(Q) Please report the recorded EC50 for Nc1ncnc2c1ncn2[C@@H]1O[C@H](COP(O)(O)=S)[C@@H](O)[C@H]1O [Adenosine-5′-O-monophosphorothioate] .
(A) 11

(Q) Quick check: EC50 of O=c1[nH]c(=O)c2ncn([C@@H]3O[C@H](COP(=O)(O)O)[C@@H](O)[C@H]3O)c2[nH]1 [Disodium Salt] ?
(A) 100

----------
# MEASUREMENT_TARGET: T1R1/T1R3 receptor (Felis catus)
# ASSAY_COMMENT: Agonist screening of transmembrane compounds on T1R1/T1R3 in HEK293 cells (Example 8)
# Format: cell-based, cat
# EXPERIMENTAL_CONTEXT: transmembrane compound tested at 0.01, 0.1 and 1 mM; HEK293 cells expressing T1R1/T1R3; calcium readout
EXPERIMENTAL_ENDPOINT: T1R1/T1R3 agonist

{"MOLECULE": "O=C(CN1C(=O)C(=O)N(Cc2ccccc2)C1=O)c1ccc2c(c1)OCCO2", "MEASUREMENT_TARGET": "T1R1/T1R3 receptor (Felis catus)", "OBSERVED": "No"}
{"MOLECULE": "O=C1CC(=O)N(Cc2ccccc2)C(=O)N1Cc1ccccc1", "MEASUREMENT_TARGET": "T1R1/T1R3 receptor (Felis catus)", "OBSERVED": "Yes"}
{"MOLECULE": "COC(=O)[C@H](CC(C)C)NCc1ccccc1.Cl", "MEASUREMENT_TARGET": "T1R1/T1R3 receptor (Felis catus)", "OBSERVED": "Yes"}
{"MOLECULE": "Cc1ccc(CNC(Cc2ccccc2)C(=O)O)cc1 (stereo not drawn)", "MEASUREMENT_TARGET": "T1R1/T1R3 receptor (Felis catus)", "OBSERVED": "No"}
{"MOLECULE": "O=C(CN1C(=O)C(=O)N(Cc2ccccc2)C1=O)c1ccc2c(c1)CCC2", "MEASUREMENT_TARGET": "T1R1/T1R3 receptor (Felis catus)", "OBSERVED": "No"}

(Q) Any idea what its T1R1/T1R3 agonist is? The molecule is O=C(CN1C(=O)C(=O)N(Cc2ccccc2)C1=O)c1ccccc1
(A) No

(Q) What value of T1R1/T1R3 agonist has been recorded for this entry: Cl.N[C@@H](Cc1ccccc1)C(=O)OCc1ccccc1
(A) Yes

(Q) Which T1R1/T1R3 agonist value is on record for O=C(O)[C@H](Cc1ccc(O)cc1)NCc1ccccc1 ?
(A) No

(Q) # query: T1R1/T1R3 agonist of entry O=C1C(=O)N(Cc2ccccc2)C(=S)N1Cc1ccccc1
(A) No

----------
# +Alanine (20 mM) Thres annotations
# MEASUREMENT_TARGET: T1R1/T1R3 receptor (Felis catus, UniProt E3UMS2)
# ASSAY_COMMENT: Activation of T1R1/T1R3 receptor by transmembrane compounds alone or with alanine, IMP, GMP, phenylalanine; HEK293 cells, calcium fluorescence (Example 5)
# Type: cell-based, cat
# EXPERIMENTAL_CONTEXT: +Alanine (20 mM)
Could you give me the number in mM? Just the number is fine.

{"MOLECULE": "O=C(NCCc1ccccc1)C(=O)NCc1cccnc1", "UNIT_DESCRIPTOR": "mM", "+Alanine (20 mM) Thres": 1}

(Q) Would you mind telling me what +Alanine (20 mM) Thres value was observed for CCC(CC)NC(=O)c1ccc2c(c1)OCCO2 ?
(A) 0.3

(Q) Given the molecule O=C(CN1C(=O)C(=O)N(Cc2ccccc2)C1=O)c1ccccc1 , what is its reported +Alanine (20 mM) Thres?
(A) 1

(Q) Quick one: +Alanine (20 mM) Thres of O=C(Nc1ccccc1Br)N[C@@H]1c2ccccc2C[C@@H]1O (stereo in doubt) ?
(A) 3

----------
Readings of Threshold for the listed compounds
# MEASUREMENT_TARGET: cat T1R1/T1R3 receptor (Felis catus)
# ASSAY_COMMENT: cell-based
# Type: cell-based
Counter-ions that a name gives are not always drawn.
// units = mM; emit number, no label

{"COMPOUND": "Nc1nc2c(nc(Br)n2[C@@H]2O[C@H](COP(=O)(O)O)[C@@H](O)[C@H]2O)c(=O)[nH]1 [8-Bromoguanosine-5′-O-monophosphate]", "OBSERVED": 1}
{"COMPOUND": "Nc1nc2c(ncn2[C@H]2C[C@H](O)[C@@H](COP(O)(O)=S)O2)c(=O)[nH]1", "OBSERVED": 0.005}
{"COMPOUND": "CNc1ccccc1C(=O)O[C@H]1C[C@H](n2cnc3c(N)ncnc32)O[C@@H]1COP(=O)(O)O", "OBSERVED": 0.0025}
{"COMPOUND": "Nc1ncnc2c1ncn2C1OC(COP(=O)(O)O)C(OP(=O)(O)O)C1O (stereo not shown) [Adenosine 3′,5′-diphosphate sodium salt, adenosine 3′, 5′ diphosphate sodium salt]", "OBSERVED": 0.00025}
{"COMPOUND": "Nc1ncnc2c1ncn2[C@H]1C[C@H](O)[C@@H](COP(=O)(O)O)O1 [2′-Deoxyadenosine 5′-monophosphate]", "OBSERVED": 0.035}
{"COMPOUND": "O=P(O)(O)OC[C@H]1O[C@@H](n2cnc3c2ncn2ccnc32)[C@H](O)[C@@H]1O [1,N6-Ethenoadenosine-5′-O-monophosphate]", "OBSERVED": 0.010}

(Q) // returns reported Threshold for input CNc1ncnc2c1ncn2[C@H]1C[C@H](OP(=O)(O)O)[C@@H](COP(=O)(O)O)O1 [MRS 2179 ammonium salt hydrate, diammonium salt]
(A) 0.013

(Q) Which Threshold is listed for Nc1ncnc2c1ncn2[C@@H]1O[C@H](COP(O)(O)=S)[C@@H](O)[C@H]1O [Adenosine-5′-O-monophosphorothioate] ?
(A) 0.003

(Q) Sample Nc1nc2c(ncn2[C@@H]2O[C@H](COP(=O)(O)OP(=O)(O)O)[C@@H](O)[C@H]2O)c(=S)[nH]1 [6-Thioguanosine-5′-O-diphosphate] — what was its Threshold?
(A) 0.03

(Q) Entry NC(=O)c1ncn(C2OC(COP(=O)(O)O)C(O)C2O)c1N (stereo not shown) has what Threshold?
(A) 0.200

(Q) Any idea what Threshold was measured for Nc1ncnc2c1ccn2[C@H]1O[C@@H](COP(=O)(O)O)[C@H](O)[C@@H]1O (stereo in doubt) [7-Deazaadenosine-5′-O-monophosphate] ?
(A) 0.188

(Q) Name the recorded Threshold for Nc1ncnc2c1ncn2[C@H]1C[C@H](O)[C@@H](COP(O)(O)=S)O1 .
(A) 0.015

(Q) Reported Threshold, compound Nc1nc2c(ncn2[C@@H]2O[C@H](COP(=O)(O)OP(=O)(O)OP(=O)(O)O)[C@@H](O)[C@H]2O)c(=O)[nH]1 [Guanosine 5′-triphosphate] : ____
(A) 0.175
